Data origin, for the record: patent US20240366589A1

- measured-on: Human NHE3 (Homo sapiens, UniProt P48764)
- Construct: expressed in transfected cells; host or cells: Opossum kidney (OK) cells (ATCC), electroporation
- Sequence (P48764 26-834): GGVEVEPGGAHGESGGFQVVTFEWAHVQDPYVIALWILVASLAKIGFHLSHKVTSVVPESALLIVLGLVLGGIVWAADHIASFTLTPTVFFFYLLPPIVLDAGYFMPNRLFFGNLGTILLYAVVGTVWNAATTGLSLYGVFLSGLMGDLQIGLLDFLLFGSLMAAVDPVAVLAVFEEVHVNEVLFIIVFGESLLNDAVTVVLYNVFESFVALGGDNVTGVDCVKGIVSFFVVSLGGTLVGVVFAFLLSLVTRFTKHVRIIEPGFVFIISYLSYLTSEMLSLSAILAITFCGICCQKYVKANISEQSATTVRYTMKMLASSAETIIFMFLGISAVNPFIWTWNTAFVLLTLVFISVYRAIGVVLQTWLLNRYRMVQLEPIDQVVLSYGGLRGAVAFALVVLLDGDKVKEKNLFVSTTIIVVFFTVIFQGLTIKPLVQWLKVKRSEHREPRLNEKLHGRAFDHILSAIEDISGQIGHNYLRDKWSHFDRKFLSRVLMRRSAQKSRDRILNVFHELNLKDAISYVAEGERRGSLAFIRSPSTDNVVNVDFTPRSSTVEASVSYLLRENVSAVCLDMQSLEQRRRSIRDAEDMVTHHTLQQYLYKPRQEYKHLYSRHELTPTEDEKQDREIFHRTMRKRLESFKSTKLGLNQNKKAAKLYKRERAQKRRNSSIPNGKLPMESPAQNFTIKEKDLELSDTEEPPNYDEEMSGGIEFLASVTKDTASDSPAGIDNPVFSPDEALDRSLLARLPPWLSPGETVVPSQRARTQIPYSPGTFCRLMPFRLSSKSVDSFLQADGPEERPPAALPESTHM
- protocol-text: Cell-based NHE3 activity under prompt conditions (OK cells, BCECF pH recovery), human NHE3
- condition-context: prompt conditions
Listing of entries alongside the reported Prompt Human NHE3 pIC50.
Give a plain numeric answer without units written out.

Query: For the compound CC(=O)C(CCC(=O)NCCOCCOCCNS(=O)(=O)c1cccc([C@@H]2CN(C)Cc3c(Cl)cc(Cl)cc32)c1)(CCC(=O)NCCOCCOCCNS(=O)(=O)c1cccc([C@@H]2CN(C)Cc3c(Cl)cc(Cl)cc32)c1)CCC(=O)NCCOCCOCCNS(=O)(=O)c1cccc([C@@H]2CN(C)Cc3c(Cl)cc(Cl)cc32)c1 [compound 169] , what Prompt Human NHE3 pIC50 is on record?
Reply: 6.20

Query: For the compound CN(C)CC(=O)NC(CCC(=O)NCCOCCOCCNS(=O)(=O)c1cccc([C@@H]2CN(C)Cc3c(Cl)cc(Cl)cc32)c1)(CCC(=O)NCCOCCOCCNS(=O)(=O)c1cccc([C@@H]2CN(C)Cc3c(Cl)cc(Cl)cc32)c1)CCC(=O)NCCOCCOCCNS(=O)(=O)c1cccc([C@@H]2CN(C)Cc3c(Cl)cc(Cl)cc32)c1 [compound 128] , what Prompt Human NHE3 pIC50 is on record?
Reply: 8.00

Query: For the compound CN1Cc2c(Cl)cc(Cl)cc2[C@H](c2cccc(S(=O)(=O)NCCOCCOCCOCCn3cc(CN(Cc4cn(CCOCCOCCOCCNS(=O)(=O)c5cccc([C@@H]6CN(C)Cc7c(Cl)cc(Cl)cc76)c5)nn4)Cc4cnnn4CCOCCOCCOCCNS(=O)(=O)c4cccc([C@@H]5CN(C)Cc6c(Cl)cc(Cl)cc65)c4)nn3)c2)C1 [compound 73] , what Prompt Human NHE3 pIC50 is on record?
Reply: 6.30

Query: For the compound CN(C)[C@H]1Cc2c(Cl)cc(Cl)cc2[C@@H]1Oc1ccc(S(=O)(=O)NCCOCCOCCNC(=O)CCC(=O)NCCOCCOCCNS(=O)(=O)c2ccc(O[C@H]3c4cc(Cl)cc(Cl)c4C[C@@H]3N(C)C)cc2)cc1 [compound 148] , what Prompt Human NHE3 pIC50 is on record?
Reply: 7.80

Query: For the compound C/C(=C\c1cc(F)c(Oc2ccc(S(=O)(=O)NCCOCCOCCOCCNC(=O)COCC(=O)NCCOCCOCCOCCNS(=O)(=O)c3ccc(Oc4c(F)cc(/C=C(\C)C(=O)N=C(N)N)cc4F)cc3)cc2)c(F)c1)C(=O)N=C(N)N [compound 15] , what Prompt Human NHE3 pIC50 is on record?
Reply: 7.90
